These measurements were taken from PubChem BioAssay AID1963843.

Answer each item with its documented IC50.
Test system: 616215-338-R-J1-PDC complex spheroid viability;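 further: spheroids exposed to compounds for one week before readout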
Method Description: Anticancer human tumor 616215-338-R-J1-PDC patient-derived colon adenocarcinoma cell line growth inhibition [POLQ]
Stated Conditions: curve of first compound; second compound 0.316 µM
Procedure: Multicellular complex tumor spheroid response to Polymerase (POL) inhibitors (novobiocin, ART-558, RP6685) in combination with a variety of drugs and investigational agents in selected tumor cell lines The POL inhibitors (novobiocin, ART-558, and RP6685) were evaluated both individually and in combination with standard of care and investigational anticancer small molecules within a complex spheroid model of solid tumors. . […]
Kindly answer with a numeric value in nM, unit omitted.

Known value: 616215-338-R-J1-PDC complex spheroid viability IC50 of the compound CC1COCCN1c1cc(C2(O)CC3CCC(C2)O3)c2cnn(-c3ccn[nH]3)c2n1 (stereo unspecified) + COC1C(OC(N)=O)C(O)C(Oc2ccc3c(O)c(NC(=O)c4ccc(O)c(CC=C(C)C)c4)c(=O)oc3c2C)OC1(C)C equals 1830

Known value: 616215-338-R-J1-PDC complex spheroid viability IC50 of the compound CC1COCCN1c1cc(C2(O)CC3CCC(C2)O3)c2cnn(-c3ccn[nH]3)c2n1 (stereo unspecified) + Cc1cccc(N(C)C(=O)C2C(O)CCN2c2nc(C)cc(C(F)(F)F)c2C#N)c1 equals 2750

Known value: 616215-338-R-J1-PDC complex spheroid viability IC50 of the compound COc1cccc2c1C(=O)c1c(O)c3c(c(O)c1C2=O)CC(O)(C(=O)CO)CC3OC1CC(N)C(O)C(C)O1 (stereo unspecified) + COC1C(OC(N)=O)C(O)C(Oc2ccc3c(O)c(NC(=O)c4ccc(O)c(CC=C(C)C)c4)c(=O)oc3c2C)OC1(C)C equals 864

Known value: 616215-338-R-J1-PDC complex spheroid viability IC50 of the compound Nc1ccn(C2OC(CO)C(O)C2(F)F)c(=O)n1 (stereo unspecified) + Cc1cccc(N(C)C(=O)C2C(O)CCN2c2nc(C)cc(C(F)(F)F)c2C#N)c1 equals 58

Known value: 616215-338-R-J1-PDC complex spheroid viability IC50 of the compound COc1cccc(OCCCN)c1-c1cc(Nc2cnc(C#N)cn2)n[nH]1 + Cc1cccc(N(C)C(=O)C2C(O)CCN2c2nc(C)cc(C(F)(F)F)c2C#N)c1 equals 58.3

Known value: 616215-338-R-J1-PDC complex spheroid viability IC50 of the compound CCc1cc2c(N3CCc4c(cc(Cn5ccnc5)cc4-c4cn(C)nc4C(F)(F)F)C3=O)cc(C)nc2c(OC)n1 + Nc1ccc(C#CCN(C(=O)Cc2ncc(C(F)(F)F)cc2C(F)(F)F)c2ccc(F)cc2)nn1 equals 2460

Known value: 616215-338-R-J1-PDC complex spheroid viability IC50 of the compound COc1cccc2c1C(=O)c1c(O)c3c(c(O)c1C2=O)CC(O)(C(=O)CO)CC3OC1CC(N)C(O)C(C)O1 (stereo unspecified) + Nc1ccc(C#CCN(C(=O)Cc2ncc(C(F)(F)F)cc2C(F)(F)F)c2ccc(F)cc2)nn1 equals 89.2

Known value: 616215-338-R-J1-PDC complex spheroid viability IC50 of the compound O=c1[nH]cc(F)c(=O)[nH]1 + Nc1ccc(C#CCN(C(=O)Cc2ncc(C(F)(F)F)cc2C(F)(F)F)c2ccc(F)cc2)nn1 equals 529

Known value: 616215-338-R-J1-PDC complex spheroid viability IC50 of the compound O=C(c1cc(Cc2n[nH]c(=O)c3ccccc23)ccc1F)N1CCN(C(=O)C2CC2)CC1 + Nc1ccc(C#CCN(C(=O)Cc2ncc(C(F)(F)F)cc2C(F)(F)F)c2ccc(F)cc2)nn1 equals 8940
